Values were extracted from ChEMBL document CHEMBL4828725.

# System Under Test: Alpha-galactosidase (Coffea arabica)
# Sequence (Q42656 whole entry): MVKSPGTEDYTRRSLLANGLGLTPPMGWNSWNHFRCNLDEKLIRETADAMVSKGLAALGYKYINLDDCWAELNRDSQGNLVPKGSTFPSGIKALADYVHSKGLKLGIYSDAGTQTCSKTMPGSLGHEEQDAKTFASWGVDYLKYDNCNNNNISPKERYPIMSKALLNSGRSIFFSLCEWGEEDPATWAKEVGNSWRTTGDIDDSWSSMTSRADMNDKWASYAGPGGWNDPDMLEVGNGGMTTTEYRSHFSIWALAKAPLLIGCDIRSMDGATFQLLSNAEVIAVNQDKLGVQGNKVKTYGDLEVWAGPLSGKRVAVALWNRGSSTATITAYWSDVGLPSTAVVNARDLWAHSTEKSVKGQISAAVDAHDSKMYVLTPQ
# Procedure Summary: Inhibition of coffee beans alpha-galactosidase using p-nitrophenyl glycoside as substrate assessed as release of p-nitrophenol measured by spectrometric assay
# Condition Details: read-out: IC50
Binary label based on IC50 with cut-off 20 µM: below gives TRUE, not below gives FALSE.

[
  {
    "Smiles Data": "C[C@]1(CO)NC[C@H](O)[C@@H](O)[C@@H]1O.Cl",
    "Group": "TRUE"
  }
]

QUERY: Could you please tell me whether IC50 recorded for `CCCCCCC[C@]1(CO)NC[C@H](O)[C@@H](O)[C@@H]1O.Cl` is less than 20 µM?
RESULT: FALSE

QUERY: Below 20 µM on IC50? Entry `CCCCCCCCCC[C@]1(CO)NC[C@H](O)[C@@H](O)[C@@H]1O.Cl`
RESULT: TRUE

QUERY: Dear colleague, could you confirm whether IC50 of `CCCCC[C@]1(CO)NC[C@H](O)[C@@H](O)[C@@H]1O.Cl` falls below 20 µM? Thanks.
RESULT: FALSE

QUERY: Consider `CCCCCC[C@]1(CO)NC[C@H](O)[C@@H](O)[C@@H]1O.Cl` . Does its IC50 lie strictly below 20 µM?
RESULT: FALSE
